Reported residual activity is given for each of the following compounds.
Study System: Telomerase reverse transcriptase (Homo sapiens, UniProt O14746)
Sequence (O14746 whole entry): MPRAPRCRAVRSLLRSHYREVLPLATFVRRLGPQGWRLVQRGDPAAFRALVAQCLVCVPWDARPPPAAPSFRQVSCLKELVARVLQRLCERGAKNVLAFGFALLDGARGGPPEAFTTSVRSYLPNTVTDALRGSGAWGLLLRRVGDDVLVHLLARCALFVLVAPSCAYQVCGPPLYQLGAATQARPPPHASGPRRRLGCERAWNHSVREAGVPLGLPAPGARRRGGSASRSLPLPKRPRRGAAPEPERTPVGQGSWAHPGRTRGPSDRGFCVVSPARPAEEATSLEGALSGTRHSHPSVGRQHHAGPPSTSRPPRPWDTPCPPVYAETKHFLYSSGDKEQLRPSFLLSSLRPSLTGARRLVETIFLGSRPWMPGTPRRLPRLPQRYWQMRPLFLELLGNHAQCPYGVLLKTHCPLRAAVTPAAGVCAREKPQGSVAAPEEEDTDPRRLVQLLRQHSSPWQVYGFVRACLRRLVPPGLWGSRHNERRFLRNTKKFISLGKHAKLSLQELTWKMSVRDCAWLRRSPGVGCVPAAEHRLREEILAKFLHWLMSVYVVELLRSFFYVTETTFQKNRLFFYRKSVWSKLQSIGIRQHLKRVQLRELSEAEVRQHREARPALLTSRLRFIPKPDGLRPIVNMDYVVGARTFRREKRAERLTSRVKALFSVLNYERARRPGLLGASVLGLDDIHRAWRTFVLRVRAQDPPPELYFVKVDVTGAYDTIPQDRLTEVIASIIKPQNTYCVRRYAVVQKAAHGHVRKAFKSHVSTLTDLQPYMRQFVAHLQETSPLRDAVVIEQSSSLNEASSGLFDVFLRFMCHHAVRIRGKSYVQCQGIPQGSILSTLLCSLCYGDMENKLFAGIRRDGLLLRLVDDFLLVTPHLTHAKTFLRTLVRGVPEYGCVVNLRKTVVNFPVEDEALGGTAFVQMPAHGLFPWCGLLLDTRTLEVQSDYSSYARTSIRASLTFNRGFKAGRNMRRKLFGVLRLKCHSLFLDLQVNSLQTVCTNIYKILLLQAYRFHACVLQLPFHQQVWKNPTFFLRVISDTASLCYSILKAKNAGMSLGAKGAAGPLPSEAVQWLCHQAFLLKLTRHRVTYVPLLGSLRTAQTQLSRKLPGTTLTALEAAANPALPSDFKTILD
Experiment Description: Effect on human TERT expressed in BJ1 cells at 100 uM after 24 hrs by SEAP assay relative to control
Condition Set: BJ
Give the quantity in %, number only.

These recorded examples may help you get a feel for the data.
- Cpd Smiles: "CN(C)CCC(=O)Nc1ccc2c(c1)C(=O)c1cc(NC(=O)CCN(C)C)ccc1C2=O"
  Study System: "Telomerase reverse transcriptase (Homo sapiens, UniProt O14746)"
  Parameter Measured: "residual activity"
  Measured Result: 38
- Cpd Smiles: "O=C(CN1CCCCC1)Nc1ccc2c(c1)C(=O)c1cc(NC(=O)CN3CCCCC3)ccc1C2=O"
  Study System: "Telomerase reverse transcriptase (Homo sapiens, UniProt O14746)"
  Parameter Measured: "residual activity"
  Measured Result: 103
- Cpd Smiles: "O=C(Nc1ccc2c(c1)C(=O)c1cc(NC(=O)c3ccccc3)ccc1C2=O)c1ccccc1"
  Study System: "Telomerase reverse transcriptase (Homo sapiens, UniProt O14746)"
  Parameter Measured: "residual activity"
  Measured Result: 36
- Cpd Smiles: "CC(C)NCC(=O)Nc1ccc2c(c1)C(=O)c1cc(NC(=O)CNC(C)C)ccc1C2=O"
  Study System: "Telomerase reverse transcriptase (Homo sapiens, UniProt O14746)"
  Parameter Measured: "residual activity"
  Measured Result: 45

Report value only: residual activity, Telomerase reverse transcriptase (Homo sapiens, UniProt O14746), `O=C1c2ccc(NC(=O)C3CCCCC3)cc2C(=O)c2cc(NC(=O)C3CCCCC3)ccc21`
22

Give measured residual activity for `O=C(CCN1CCCC1)Nc1ccc2c(c1)C(=O)c1cc(NC(=O)CCN3CCCC3)ccc1C2=O` (Telomerase reverse transcriptase (Homo sapiens, UniProt O14746)).
109

Enter measured residual activity, system Telomerase reverse transcriptase (Homo sapiens, UniProt O14746), for the compound shown: `O=C(CCCCl)Nc1ccc2c(c1)C(=O)c1cc(NC(=O)CCCCl)ccc1C2=O`
75

Please look at `CC(C)CNCC(=O)Nc1ccc2c(c1)C(=O)c1cc(NC(=O)CNCC(C)C)ccc1C2=O` and tell me its recorded residual activity on Telomerase reverse transcriptase (Homo sapiens, UniProt O14746).
40

Retrieve residual activity on Telomerase reverse transcriptase (Homo sapiens, UniProt O14746); query `CCC(=O)Nc1ccc2c(c1)C(=O)c1cc(NC(=O)CC)ccc1C2=O`
51

Fill in residual activity for `CCCCNCC(=O)Nc1ccc2c(c1)C(=O)c1cc(NC(=O)CNCCCC)ccc1C2=O` tested with Telomerase reverse transcriptase (Homo sapiens, UniProt O14746).
80

With Telomerase reverse transcriptase (Homo sapiens, UniProt O14746) as the test system, provide measured residual activity for this compound: `CCN(CC)CCC(=O)Nc1ccc2c(c1)C(=O)c1cc(NC(=O)CCN(CC)CC)ccc1C2=O`
37
